Tested on: ARAF (human), P10398 [Y301D/Y302D]
Sequence (P10398 whole entry Y301D/Y302D, looked up): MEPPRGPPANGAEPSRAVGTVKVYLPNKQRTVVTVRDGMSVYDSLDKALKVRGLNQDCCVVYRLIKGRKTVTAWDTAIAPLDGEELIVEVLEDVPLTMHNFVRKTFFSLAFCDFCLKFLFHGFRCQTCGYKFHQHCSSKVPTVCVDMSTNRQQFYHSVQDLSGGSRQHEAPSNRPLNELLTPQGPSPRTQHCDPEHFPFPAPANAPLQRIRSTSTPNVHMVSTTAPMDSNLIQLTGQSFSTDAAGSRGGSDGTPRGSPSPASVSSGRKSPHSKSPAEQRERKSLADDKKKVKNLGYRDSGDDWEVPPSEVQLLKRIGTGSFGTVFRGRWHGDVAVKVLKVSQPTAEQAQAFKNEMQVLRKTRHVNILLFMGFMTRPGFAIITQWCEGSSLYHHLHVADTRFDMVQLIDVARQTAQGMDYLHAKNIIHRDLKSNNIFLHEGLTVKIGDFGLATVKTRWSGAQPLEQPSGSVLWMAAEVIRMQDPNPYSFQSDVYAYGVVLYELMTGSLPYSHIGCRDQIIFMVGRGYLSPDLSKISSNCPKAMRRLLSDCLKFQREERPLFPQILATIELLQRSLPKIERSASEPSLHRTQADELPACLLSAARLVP
method notes: radiometric filter-binding kinase assay, Kinase HotSpot
condition notes: compound 0.5 µM; ATP 10 µM
reported property: residual activity (%)
# output: bare number, implied unit %

// solved cases for residual activity follow
CCN(CC)CCCCN1c2ccccc2Oc2ccc(Cl)cc21 | 103
Oc1ccc(-c2nc(-c3ccc(F)cc3)c(-c3ccncc3)[nH]2)cc1 | 31.1
COc1cc2ncnc(Nc3ccc(Oc4ccccc4)cc3)c2cc1OC | 73.3

Ask | What value of residual activity has been reported for the following compound? "N#C/C(=C(/N)Sc1ccc(N)cc1)c1ccccc1C(F)(F)F"
Reply | 98.8

Ask | What value of residual activity has been reported for the following compound? "O=C(O)c1ccc2c3c1cccc3c(=O)n1c3ccccc3nc21"
Reply | 101

Ask | What value of residual activity has been reported for the following compound? "CC#CC(=O)Nc1cc2c(Nc3ccc(F)c(Cl)c3)ncnc2cn1"
Reply | 74.1

Ask | What value of residual activity has been reported for the following compound? "Nc1cccc(-c2cc3c(Oc4cccc(O)c4)ncnc3[nH]2)c1"
Reply | 57.3

Ask | What value of residual activity has been reported for the following compound? "O=C1NC(=O)C(c2c[nH]c3ccccc23)=C1c1c[nH]c2ccccc12"
Reply | 155

----------
target or system: GSK3A (human) (UniProt P49840)
Sequence (P49840 whole entry, looked up): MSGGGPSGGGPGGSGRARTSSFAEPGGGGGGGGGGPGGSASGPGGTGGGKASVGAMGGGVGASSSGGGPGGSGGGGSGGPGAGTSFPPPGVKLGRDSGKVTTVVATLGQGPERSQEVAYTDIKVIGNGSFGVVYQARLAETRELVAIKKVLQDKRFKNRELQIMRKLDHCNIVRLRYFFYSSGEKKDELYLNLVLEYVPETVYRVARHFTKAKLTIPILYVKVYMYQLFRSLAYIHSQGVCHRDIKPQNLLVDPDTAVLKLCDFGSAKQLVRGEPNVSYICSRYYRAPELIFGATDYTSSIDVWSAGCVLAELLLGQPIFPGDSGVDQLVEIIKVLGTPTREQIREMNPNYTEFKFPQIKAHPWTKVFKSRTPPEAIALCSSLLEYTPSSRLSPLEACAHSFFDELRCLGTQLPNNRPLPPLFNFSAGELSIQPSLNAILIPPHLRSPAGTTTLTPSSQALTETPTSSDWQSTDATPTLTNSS
method notes: radiometric filter-binding kinase assay, Kinase HotSpot
condition notes: compound 0.5 µM; ATP 10 µM
Reported residual activity values for the following compounds.
# output: bare number, implied unit %

// solved cases for residual activity follow
COc1ccc(-c2cnc3c(-c4ccsc4)cnn3c2)cc1 | 92.5
Oc1ccc(-c2nc(-c3ccc(F)cc3)c(-c3ccncc3)[nH]2)cc1 | 91.1
Nc1nc(Nc2ccc(S(N)(=O)=O)cc2)nn1C(=O)c1c(F)cccc1F | 9.59

# context switch: different compound, same residual activity
Ask | What value of residual activity has been reported for the following compound? "O=C1Nc2ccccc2/C1=C\c1c(Cl)[nH]c2ccccc12"
Reply | 99.3

----------
target or system: EPHB2 (human) (UniProt P29323)
Sequence (P29323 whole entry, looked up): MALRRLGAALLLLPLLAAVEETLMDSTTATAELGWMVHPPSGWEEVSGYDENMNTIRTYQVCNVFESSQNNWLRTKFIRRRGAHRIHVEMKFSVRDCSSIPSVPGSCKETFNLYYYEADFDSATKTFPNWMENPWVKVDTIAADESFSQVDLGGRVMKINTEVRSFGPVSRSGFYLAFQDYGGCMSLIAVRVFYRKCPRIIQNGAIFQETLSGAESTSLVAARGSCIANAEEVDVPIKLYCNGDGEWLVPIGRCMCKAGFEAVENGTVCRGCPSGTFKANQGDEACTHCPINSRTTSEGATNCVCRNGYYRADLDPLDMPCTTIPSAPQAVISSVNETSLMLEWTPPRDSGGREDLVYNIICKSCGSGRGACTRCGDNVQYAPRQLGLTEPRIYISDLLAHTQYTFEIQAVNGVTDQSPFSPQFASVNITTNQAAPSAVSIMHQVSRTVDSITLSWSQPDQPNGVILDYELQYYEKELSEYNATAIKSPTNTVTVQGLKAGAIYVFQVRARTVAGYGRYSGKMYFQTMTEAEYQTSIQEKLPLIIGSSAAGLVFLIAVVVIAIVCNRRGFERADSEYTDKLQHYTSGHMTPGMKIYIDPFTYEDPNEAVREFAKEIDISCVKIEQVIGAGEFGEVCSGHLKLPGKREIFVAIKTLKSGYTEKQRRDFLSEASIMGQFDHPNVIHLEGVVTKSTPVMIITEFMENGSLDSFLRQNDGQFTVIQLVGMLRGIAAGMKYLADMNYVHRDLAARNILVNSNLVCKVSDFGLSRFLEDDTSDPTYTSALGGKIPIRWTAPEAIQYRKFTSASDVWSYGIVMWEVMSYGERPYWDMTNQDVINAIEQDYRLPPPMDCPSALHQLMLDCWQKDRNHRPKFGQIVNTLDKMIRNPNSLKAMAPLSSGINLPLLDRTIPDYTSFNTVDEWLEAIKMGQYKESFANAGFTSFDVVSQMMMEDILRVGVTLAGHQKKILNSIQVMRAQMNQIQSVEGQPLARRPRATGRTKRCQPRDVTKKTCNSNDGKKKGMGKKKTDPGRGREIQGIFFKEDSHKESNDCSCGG
method notes: radiometric filter-binding kinase assay, Kinase HotSpot
condition notes: compound 0.5 µM; ATP 10 µM
reported property: residual activity
State the value with its unit after it.

Clc1ccc(Nc2nnc(Cc3ccncc3)c3ccccc23)cc1 | 107%
CC(C)[C@H](CO)Nc1nc(Nc2cccc(Cl)c2)c2ncn(C(C)C)c2n1 | 99.3%
CSc1nc(-c2ccc(F)cc2)c(-c2ccnc(NC(C)c3ccccc3)c2)[nH]1 (stereo not given) | 85.4%
O=c1cc(N2CCNCC2)oc2c(-c3ccccc3)cccc12 | 97.3%

# context switch: different compound, same residual activity
Ask | Can you look up residual activity on EPHB2 (human) (UniProt P29323) for "O=C(Nc1ccc(Cl)cc1)c1ccccc1NCc1ccncc1" ?
Reply | 84.7%

----------
target or system: SRPK1 (human)
method notes: radiometric filter-binding kinase assay, Kinase HotSpot
condition notes: compound 0.5 µM; ATP 10 µM
reported property: residual activity (%)
# output: bare number, implied unit %

// solved cases for residual activity follow
Oc1ccc(-c2nc(-c3ccc(F)cc3)c(-c3ccncc3)[nH]2)cc1 | 109
Cc1ccc(NC(=O)c2ccc(CN3CCN(C)CC3)cc2)cc1Nc1nc(-c2cccnc2)cs1 | 98.9

Ask | What value of residual activity has been reported for the following compound? "COc1cc2ncnc(Nc3ccc(F)c(Cl)c3)c2cc1OCCCN1CCOCC1"
Reply | 98.3

Ref: the kinase profiling compilation of Christmann-Franck et al. (2016)
